test system: LOX IMVI melanoma; experiment: NCI tumour cell line growth inhibition, 48 h
# TGI per record follows

Consider the reported TGI for these compounds:
compound | TGI
CC(=O)Nc1nc(NC(C)=O)c2[nH]c(CO)nc2n1 | > 100 µM
CCCCCC1=CC(=O)C1(Cl)Cl | 21.2 µM
Nc1cc(NN=C(c2ccc(O)cc2)c2ccc(O)cc2)c([N+](=O)[O-])cc1[N+](=O)[O-] | 3.1 µM
Nc1nc(SCCC/C=C/I)nc2c1ncn2C1OC(COP(=O)(O)O)C(O)C1O (stereo unspecified) | > 100 µM
C#CCn1c(=O)c2ccccc2n(CC#C)c1=O | > 10 µM
Nc1ccc(C2=NNC(=O)Cc3cc4c(cc32)OCCO4)cc1Cl | > 50 µM

Query block: Record request: TGI value, item Nc1nc(-c2ccccc2)nc2oc(-c3cccs3)nc12
Result block: > 100 µM

Query block: Another compound to check: Oc1ccc(-c2nc3ccc(Br)cc3s2)cc1
Result block: 30.1 µM

Query block: Another compound to check: COc1ccc2nc(NC(=O)CSc3nnc4n3S(=O)(=O)c3ccccc3N4c3ccccc3)sc2c1
Result block: > 100 µM

Query block: Another compound to check: COc1ccc(-n2c(C)nc3ccc(NC(=S)Nc4ccccc4)cc3c2=O)cc1
Result block: > 100 µM

Query block: Another compound to check: COc1cccc(C(=O)NC(c2ccc(C)cc2)c2cc(Cl)c3cccnc3c2O)c1 (stereo unspecified)
Result block: 11.6 µM

====

test system: NCI-H460 lung; test: NCI tumour cell line growth inhibition, 48 h
propertyLabel: TGI (µM)
Answer format: numeric, µM implied, no suffix.

Consider the reported TGI for these compounds:
compound | propertyLabel | readoutNumber
CCCCCC[C@@H]1CCC2C(CO)[C@@H](O)CC[C@@H]2C1 (some centres not stated) | TGI | 30.4
O=C(/C=C/c1ccccc1)C[C@@H](O)C[C@@H]1CC=CC(=O)O1 | TGI | 39.5
O=C(/C=C/c1ccc(O)cc1)c1ccc(O)cc1 | TGI | 72.5
COc1nc(NC2OC(COC(C)=O)C(OC(C)=O)C(OC(C)=O)C2OC(C)=O)c2c(OC(C)=O)cc(=O)oc2n1 (configuration not stated) | TGI | 34.1
CN(C)CCn1c2c3ccccc3ccc2c2oc(=O)c3ccccc3c21 | TGI | 13.4
CN(C)CC1CC/C(=C\c2ccc(O)cc2)C1=O (configuration not stated) | TGI | 37.2

Query block: Record request: TGI value, item CCCCCCCCCCCCC(O)c1ccc(C#CCCCCCCCCCO)o1 (configuration not stated)
Result block: 75.4

Query block: Another compound to check: CCN(Cc1ccc(F)cc1)c1cc(Cl)c(CO)c(Cl)c1
Result block: 25.9

Query block: Another compound to check: COc1cccc(C(=O)NC(c2ccc(C)cc2)c2cc(Cl)c3cccnc3c2O)c1 (configuration not stated)
Result block: 4.66

Query block: Another compound to check: CC1(C)O[C@H]2OC(CO[Si](C)(C)C(C)(C)C)C(N=[N+]=[N-])[C@H]2O1 (some centres not stated)
Result block: 43.7

Query block: Another compound to check: CCOC(=O)c1c(CN2CCCC2)n(-c2ccccc2)c2cc(Br)c(O)cc12
Result block: 32.9

====

system: SF-268 CNS; test: NCI tumour cell line growth inhibition, 48 h
# TGI per record follows

Consider the reported TGI for these compounds:
compound | systemTested | result
CCOC(=S)SCC(=O)O | SF-268 CNS | > 100 µM
COc1ccc(-n2c(C)nc3ccc(NC(=S)Nc4ccccc4)cc3c2=O)cc1 | SF-268 CNS | > 100 µM
Cn1c2ccc3cc2c(=S)c2cc(ccc21)OCCOCCOCCOCCOCCOCCO3 | SF-268 CNS | > 10 µM
CCOC(=O)N1CCN(Cc2cc(=O)n3ccc(C)cc3n2)CC1 | SF-268 CNS | > 100 µM
Cc1cc(I)cc(CN(CCCN(C)C)C(C)C)c1O | SF-268 CNS | 32.9 µM
COC[C@H]1Cn2cc(-c3nc(Nc4ccnn4C)ncc3C)nc2C(=O)N1Cc1ccc(F)c(F)c1 | SF-268 CNS | > 100 µM

Query block: Observed TGI on SF-268 CNS for CCN(CC)CCNC(=O)c1cc2cc(NC(=O)c3cc4cc([N+](=O)[O-])ccc4[nH]3)ccc2[nH]1 , please.
Result block: > 100 µM

Query block: Another compound to check: O=C1NC(=NC(CO)Cc2ccccc2)S/C1=C\c1ccc2ncccc2c1 (stereo unspecified)
Result block: > 25 µM

Query block: Another compound to check: C#CCn1c(=O)c2ccccc2n(CC#C)c1=O
Result block: > 10 µM

Query block: Another compound to check: N=c1nnc2ccc(Cl)cc2n1O
Result block: > 100 µM

Query block: Another compound to check: CN(C)CC1CC/C(=C\c2ccc(O)cc2)C1=O (stereo unspecified)
Result block: 23.1 µM

====

tested on: CAKI-1 renal; test: NCI tumour cell line growth inhibition, 48 h; in the data active means GI50 below about 0.43 µM; inactive means the rest
The categories you may choose from are 1 (active), 0 (inactive)

Query block: For Nc1n[nH]c2cc(F)c([C@@H]3Nc4ccc5[nH]ncc5c4[C@H]4C5CCC(C5)[C@@H]34)cc12 (some centres undefined) , which call appears in the assay record?
Result block: 1

====

tested on: RPMI-8226 leukemia; assay: NCI tumour cell line growth inhibition, 48 h
propertyLabel: TGI

Consider the reported TGI for these molecules:
molecule | TGI
C=C1CCN2CC[C@@H](OC(=O)/C(C)=C\C)[C@@H]12 | > 100 µM
O=C1c2cc3c(cc2-c2c1c1ccc(F)cc1c(=O)n2C[C@H](O)[C@@H](O)[C@H](O)CO)OCO3 | 4.18 µM
CCC(=O)NCC1CCCN2CCCCC12 (configuration not stated) | > 100 µM
Nc1c(-c2ccc(Cl)c(Cl)c2)c2ccc([N+](=O)[O-])cc2c(=O)n1-c1nc2ccccc2s1 | > 100 µM
Nc1c(C(=O)Nc2cccc(C(F)(F)F)c2)sc2nc3c(cc12)CCCCC3 | 35.5 µM

Query block: Record request: TGI value, item c1ccc2c(c1)Cn1c-2nc2ccccc21
Result block: > 100 µM

Query block: Another molecule to check: O=S(=O)(c1ccccc1)c1cccc2c1NCCC2
Result block: > 100 µM

Query block: Another molecule to check: Nc1nc(-c2ccccc2)nc2oc(-c3cccs3)nc12
Result block: > 100 µM

Query block: Another molecule to check: COc1ccc(-n2c(C)nc3ccc(NC(=S)Nc4ccccc4)cc3c2=O)cc1
Result block: > 100 µM

Query block: Another molecule to check: Cn1c(=O)c2c(nc3n2CC(C(=O)O)N3)n(C)c1=O (configuration not stated)
Result block: > 100 µM

Query block: Another molecule to check: O=c1ccc2ccccc2cc1[O-].O=c1ccc2ccccc2cc1[O-].[O]=[U+2]=[O]
Result block: > 100 µM

Query block: Another molecule to check: O=C(C1OC1c1ccc(Br)cc1O)C12CC3CC(CC(C3)C1)C2 (configuration not stated)
Result block: 47.5 µM

====

tested on: KM12 colon; experiment: NCI tumour cell line growth inhibition, 48 h
propertyLabel: TGI (µM)
Answer format: numeric, µM implied, no suffix.

Consider the reported TGI for these compounds:
compound | propertyLabel | valueUnit | readoutNumber
C=C1C(=O)O[C@H]2[C@H]1CC/C(COC(=O)NCc1ccc(Cn3c(=O)sn(-c4ccc(OC)cc4)c3=O)cc1)=C\CC[C@@]1(C)O[C@@H]21 | TGI | µM | 14
COc1cccc(Nc2nc(-c3cccs3)nc3cc(OC)c(OC)cc23)c1 | TGI | µM | 87.1
C[C@]12CCC3c4ccc(O)cc4CCC3C1CC[C@@]2(O)CNC(=O)/C=C/c1ccc(O)c(O)c1 (stereo partly drawn) | TGI | µM | 11.1

Consider the record given below.
Query block: Record request: TGI value, item CCCCCCCCCCn1cc[n+](C)c1
Result block: 5.75

====

test system: UACC-62 melanoma; test: NCI tumour cell line growth inhibition, 48 h
# TGI per record follows

Consider the reported TGI for these compounds:
compound | TGI
c1ccc2c(c1)Cn1c-2nc2ccccc21 | > 100 µM
S=c1sc2c(n1-c1ccccc1)NC=NC2S (centres undefined) | > 100 µM
COc1nncc2[nH]c(-c3ccccc3)cc12 | > 100 µM
CCCCOC(=O)Nc1ccc(S(=O)(=O)Nc2ccccc2Cl)cc1 | 32.7 µM
Nc1nc2c(c(-c3cccc(Cl)c3)n1)COC/C2=C\c1cccc(Cl)c1 | > 100 µM
O=C(/C=C/c1ccccc1)C[C@@H](O)C[C@@H]1CC=CC(=O)O1 | 14.5 µM

Query block: Record request: TGI value, item CC(=O)/C=C/C1=C(C)CCCC1(C)CC(C)C (centres undefined)
Result block: 87.3 µM

Query block: Another compound to check: COc1cccc(Nc2nc(-c3cccs3)nc3cc(OC)c(OC)cc23)c1
Result block: 39.8 µM

Query block: Another compound to check: Cc1cccc(C)c1NC(=O)CCCC(=O)C1/C(=N/NC(=O)CC#N)CCC/C1=N\NC(=O)CC#N (centres undefined)
Result block: > 100 µM
